- target desc: T1, human MSR1 extracellular domain expressed with a N-terminal nonahistidine tag (human, UniProt P21757 77-451)
- T1 construct: extracellular domain; also called His9-hMSR1; His-hMSR1
- T1 sequence: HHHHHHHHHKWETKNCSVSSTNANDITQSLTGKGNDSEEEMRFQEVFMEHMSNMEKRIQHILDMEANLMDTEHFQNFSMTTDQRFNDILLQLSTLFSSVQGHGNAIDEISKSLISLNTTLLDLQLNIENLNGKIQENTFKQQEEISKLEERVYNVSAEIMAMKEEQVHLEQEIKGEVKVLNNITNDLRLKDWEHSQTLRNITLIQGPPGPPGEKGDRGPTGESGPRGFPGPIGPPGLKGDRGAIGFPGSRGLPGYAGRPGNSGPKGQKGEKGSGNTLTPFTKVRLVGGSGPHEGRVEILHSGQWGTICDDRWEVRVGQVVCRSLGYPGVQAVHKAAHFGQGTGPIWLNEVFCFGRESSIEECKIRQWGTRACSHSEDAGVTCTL
- assay notes: competition ELISA, plate-coated His9-hMSR1; 100 nM antibody, competitor ligand Ac-LDL
Listing: % Blocking of selected binders

binder	unit spec	% Blocking
H1H27736P-N297Q (antibody, V domains shown, Human IgG1 Fc with N297Q) VH: EVQLVESGGGLVQPGGSLRLSCAASGFTFSSYAMSWVRQAPGKGLEWVSSISGSGDSTFYTDSVKGRFTISRDISKNTLYLQMNSLRAEDTAVYYCAKDRLLWFGDLISPFHYWGQGTLVTVSS VL: EIVLTQSPGTLSLSPGERATLSCRASQSVSNIYLAWYQQKPAQAPRLLIYGASSRATGIPDRFSVSGSGTDFTLTISRLEPEDFAVYYCQQYGSSPRTFGQGTKVEIKR	%	-31
H1H27739P-N297Q (antibody, V domains shown, Human IgG1 Fc with N297Q) VH: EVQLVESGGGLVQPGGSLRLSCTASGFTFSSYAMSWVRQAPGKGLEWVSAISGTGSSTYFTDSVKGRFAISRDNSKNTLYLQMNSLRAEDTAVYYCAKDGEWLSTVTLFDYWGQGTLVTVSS VL: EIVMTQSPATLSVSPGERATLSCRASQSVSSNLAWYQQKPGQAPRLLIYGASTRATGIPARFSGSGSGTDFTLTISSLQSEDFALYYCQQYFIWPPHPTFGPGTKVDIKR	%	-47
H1H27732P-N297Q (antibody, V domains shown, Human IgG1 Fc with N297Q) VH: QLQLQESGPGLVKPSETLSLTCTVSGGSISSSTYYWGWIRQPPGKGLEWIGSFYYSGSTYYNPSLKSRVTISVGTSKNQFSLKLSSVTAADTAVYFCARGGLLGRPFVIWGQGTMVTVSS VL: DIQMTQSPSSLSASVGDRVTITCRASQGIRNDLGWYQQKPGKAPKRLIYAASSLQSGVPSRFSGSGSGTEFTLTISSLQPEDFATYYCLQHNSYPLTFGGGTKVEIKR	%	-61
H1H21234N (antibody, V domains shown, Original human IgG1 Fc) VH: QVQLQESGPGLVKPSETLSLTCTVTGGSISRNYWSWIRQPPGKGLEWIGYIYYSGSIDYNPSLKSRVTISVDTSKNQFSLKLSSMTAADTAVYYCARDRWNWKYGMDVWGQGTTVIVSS VL: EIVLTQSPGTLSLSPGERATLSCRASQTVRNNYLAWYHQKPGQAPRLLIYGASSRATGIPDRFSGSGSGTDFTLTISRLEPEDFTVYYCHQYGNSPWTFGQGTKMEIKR	%	70
H1H27729P-N297Q (antibody, V domains shown, Human IgG1 Fc with N297Q) VH: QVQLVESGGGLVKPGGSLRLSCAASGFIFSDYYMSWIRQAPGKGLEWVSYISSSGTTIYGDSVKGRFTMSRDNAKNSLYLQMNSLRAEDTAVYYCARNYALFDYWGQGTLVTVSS VL: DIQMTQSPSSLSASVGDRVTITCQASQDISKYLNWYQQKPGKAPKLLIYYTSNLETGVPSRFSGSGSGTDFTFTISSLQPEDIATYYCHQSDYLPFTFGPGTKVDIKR	%	8
H2aM21235N (antibody, mouse IgG2a, V domains shown, Human variable domains with mouse IgG2a Fc) VH: EVQLVESGGGLVQPGGSLRLSCAASGFTFSDHYMDWVRQAPGKGLEWVGRTRNKANSYTTEYAASVSGRFTISRDDSKNSLYLQMNSLKTEDTAVYYCTRAGIIGTLFDYWGQGTLVTVSS VL: DIQMTQSPSSLSASVGDRVTITCRASQIIGRYLNWFQQKPGKVPKLLIYAASSLQRGVPSRFSGSGSGTDFTLTISSLQPEDFATYYCQQSYNTPPITFGQGTRLEIKR	%	24
H1H27731P-N297Q (antibody, V domains shown, Human IgG1 Fc with N297Q) VH: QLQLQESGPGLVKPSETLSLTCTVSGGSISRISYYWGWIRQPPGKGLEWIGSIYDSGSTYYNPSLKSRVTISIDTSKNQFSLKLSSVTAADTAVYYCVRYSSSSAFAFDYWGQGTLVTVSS VL: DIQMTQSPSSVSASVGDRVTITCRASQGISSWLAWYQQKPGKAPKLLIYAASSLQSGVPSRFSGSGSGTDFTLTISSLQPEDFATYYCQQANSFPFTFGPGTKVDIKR	%	-41
H1H21234N-N297Q (antibody, V domains shown, Human IgG1 Fc with N297Q (EU numbering)) VH: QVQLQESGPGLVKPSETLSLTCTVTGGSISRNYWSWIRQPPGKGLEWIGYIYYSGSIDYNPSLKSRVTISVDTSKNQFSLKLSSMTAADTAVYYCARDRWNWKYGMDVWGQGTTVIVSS VL: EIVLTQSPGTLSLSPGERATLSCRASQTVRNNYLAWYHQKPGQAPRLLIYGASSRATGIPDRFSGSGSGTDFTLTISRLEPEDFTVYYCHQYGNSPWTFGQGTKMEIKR	%	75
H1H27754P-N297Q (antibody, V domains shown, Human IgG1 Fc with N297Q) VH: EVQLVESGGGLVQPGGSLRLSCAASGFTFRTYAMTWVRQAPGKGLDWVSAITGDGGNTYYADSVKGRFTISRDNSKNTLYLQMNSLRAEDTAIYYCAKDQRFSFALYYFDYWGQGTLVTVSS VL: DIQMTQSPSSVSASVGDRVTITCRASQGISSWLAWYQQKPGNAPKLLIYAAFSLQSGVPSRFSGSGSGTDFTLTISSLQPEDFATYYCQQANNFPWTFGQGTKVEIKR	%	-42
H2aM21229N (antibody, mouse IgG2a, V domains shown, Human variable domains with mouse IgG2a Fc) VH: EVQLVESGGGLVKPGGSLRLSCAASGFTFSRYSMNWVRQAPGKGLEWVSSISSSSSYIYYGDTVKGRFTISRDNAKKSLYLQMNSLRAEDTAVYYCVRDRGQLVLYFDYWGQGTLVTVSS VL: DIQMTQSPASLSTSIRDRVTITCRASLSISSFLNWFQQRPGKAPKLLIYVASNLQSGVPSRFSDSGSGTDFTLTISSLQPEDFATYYCQQNYSTPPITFGQGTRLEIK	%	-11
H2aM25695N (antibody, mouse IgG2a, V domains shown, Human variable domains with mouse IgG2a Fc) VH: QVQLQESGPGLVKPSETLSLTCTVTGGSISRNYWSWIRQPPGKGLEWIGYIYYSGSINYNPSLKSRVTISVDMSKNQFSLKLNSVTAADTAVYYCARDRWNWKYGMDVWGQGTTVIVSS VL: EIVLTQSPGTLSLSPGERATLSCRASQTVRNSYLAWYHQKPGQAPRLLIYGASSRATGIPDRFSGSGSGTDFTLTISRLEPEDFAVYYCQQYGSSYWTFGQGTKMEIKR	%	65
